System: Pseudomonas aeruginosa and MRPA strains
experiment_summary: microbe, parasite or virus in culture
Assay type: cell-based
conditions: P. aeruginosa 5018 (multidrug-resistant); broth micro-dilution, 37 °C, 18–24 h, triplicate
Where no end group is shown, it is not given here.
Attribute: MIC
measured_property: MIC (µM)

| substance | measured_property | qualifier_symbol | test_value |
| --- | --- | --- | --- |
| ILGKLWEGVKSI-NH2 [Hp1404-T1] | MIC | > | 25 |
| ILKKLLKKVKKI-NH2 [Hp1404-T1e] | MIC | = | 1.56 |
| ILKKLLKGVKSI-NH2 [Hp1404-T1c] | MIC | = | 3.13 |
| GILGKLWEGVKSIF-NH2 [Hp1404] | MIC | = | 12.5 |
| ILKKLLEGVKSI-NH2 [Hp1404-T1b] | MIC | > | 25 |

* * *

Test system: Pseudomonas aeruginosa and MRPA strains
experiment_summary: microbe, parasite or virus in culture
Assay type: cell-based
conditions: P. aeruginosa ATCC 27853; broth micro-dilution, 2 × 10^5 CFU/mL, 37 °C, 18–24 h, A600, triplicate
Where no end group is shown, it is not given here.
Attribute: MIC

| substance | MIC |
| --- | --- |
| ILKKLWEGVKSI-NH2 [Hp1404-T1a] | >25 µM |
| ILGKLWEGVKSI-NH2 [Hp1404-T1] | >25 µM |
| ILKKLLEGVKSI-NH2 [Hp1404-T1b] | >25 µM |

* * *

Test system: Pseudomonas aeruginosa and MRPA strains
experiment_summary: microbe, parasite or virus in culture
Type: cell-based
conditions: P. aeruginosa 138 (multidrug-resistant); broth micro-dilution, 37 °C, 18–24 h, triplicate
Where no end group is shown, it is not given here.
Attribute: MIC

| substance | MIC |
| --- | --- |
| ILGKLWEGVKSI-NH2 [Hp1404-T1] | >25 µM |
| ILKKLWEGVKSI-NH2 [Hp1404-T1a] | >25 µM |
| ILKKLLEGVKSI-NH2 [Hp1404-T1b] | >25 µM |
